- Test Details: HepG2 cytotoxicity, primary screen, cytotoxicity control for P. falciparum antimalarial project, cell-based, ATP luminescence (AID 2303);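 further: 0% = DMSO wells and 100% = digitonin-killed cells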
- Details: HepG2 viability, 24-48 h, at 10 µM, active compounds read high
Active and inactive are the calls of the source.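 How the source made its calls: active means inhibition above 50%; inactive means the rest.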
Endpoint Name: inhibition

Compound | Result
CC(C)/C(=C(/F)CN1C(=O)C(NC(=O)c2cc3ccccc3[nH]2)C(=O)N(c2ccccc2)c2ccccc21)c1ccccc1 (stereo not drawn) | 7% (inactive)
CC[C@H]1CN2CC[C@H]1C[C@H]2[C@H](O)c1cc(-c2ccc(F)cc2)nc2ccc(OC)cc12 | 34% (inactive)
CCC(C)CN1CCC(N(C)c2cc(NC(=O)c3cccc(C)c3)ccn2)CC1 (stereo not drawn) | 1% (inactive)
O=C(Cc1c(-c2ccccc2)[nH]c2ccccc12)NC1CCC(CN2CCC(c3c[nH]c4ccccc34)CC2)CC1 (stereo not drawn) | 31% (inactive)
Cc1cccc2[nH]cc(C3CCN(CC4CCC(NC(=O)/C=C/c5ccc(Cl)c(Cl)c5)CC4)CC3)c12 (stereo not drawn) | 88% (active)

Recorded inhibition for `COc1ccc(CCNCc2ccc3nc(N)cc(C)c3c2)cc1` , please? 23% (inactive)

Which inhibition is listed for O=C(NC1CCC(CN2CCC(c3c[nH]c4ccccc34)CC2)CC1)c1cc(-c2cccc(Cl)c2)n(-c2ccc(Cl)cc2Cl)n1 (stereo not drawn) ? 53% (active)

Look at this compound and give its reported inhibition. `N#Cc1ccc(N(CCCO)Cc2ccccc2C(F)(F)F)cc1C(F)(F)F` 7% (inactive)

###

- System Name: L-lactate dehydrogenase (Plasmodium falciparum (isolate CDC / Honduras)) (UniProt Q27743)
- Sequence (Q27743 whole entry, looked up): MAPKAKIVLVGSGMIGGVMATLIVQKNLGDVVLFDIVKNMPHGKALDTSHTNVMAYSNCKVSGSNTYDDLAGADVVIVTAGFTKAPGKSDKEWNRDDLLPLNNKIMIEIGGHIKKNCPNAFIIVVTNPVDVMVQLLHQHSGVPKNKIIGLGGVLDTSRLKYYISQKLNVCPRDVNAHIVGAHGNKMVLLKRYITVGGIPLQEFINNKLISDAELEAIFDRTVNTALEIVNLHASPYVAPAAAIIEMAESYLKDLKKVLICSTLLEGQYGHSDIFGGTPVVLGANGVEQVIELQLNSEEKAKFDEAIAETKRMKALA
- Test Details: PfLDH activity inhibition – cell lysate, 3D7 strain, counter-screen for P. falciparum growth inhibition project (AID 2304);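 further: 0% = vehicle and 100% = reference inhibitor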
- Details: P. falciparum 3D7 crude extract, LDH APAD/NBT absorbance; at 2 µM; active compounds read high
Calls of active or inactive are those of the source. The rule behind the calls is not given here.
Item-by-item account of inhibition

Would you please look over these solved cases?
Compound | inhibition
Cc1c(C(=O)N[C@@H](C)c2ccccc2)c2cc(O)c(Br)cc2n1C1CCCCC1 | -6% (inactive)
O=C(/C=C/c1ccc(Cl)c(Cl)c1)NC1CCC(N2CCC(c3c[nH]c4ccccc34)CC2)CC1 (stereo not given) | 7% (inactive)
Cc1ccc(CC(C)NCC(O)c2cccc(Cl)c2)cc1F (stereo not given) | -2% (inactive)
CN(c1cc(NC(=O)c2ccc(F)cc2)ccn1)C1CCN(Cc2cccc(O)c2)CC1 | 2% (inactive)

Consider the compound shown here: `COc1ccc2c(c1)[nH]c1c(C=Cc3ccccc3)nccc12` What is its recorded inhibition? 7% (inactive)

###

Listed below: fold change values for each entry.
- Test Details: sensitizers of A549 cells to miR-34 induction, primary screen, imaging, A549 dox-inducible miR-34, nuclei and caspase counts (AID 1347080)
- Details: A549 miR-34 inducible, Hoechst nuclei count, 48 h; active compounds read low
API note: the answer field is a bare number with no unit suffix.

Compound | Endpoint Name | Result Number
CC1(C(=O)O)C2CCC(O2)C1(C)C(=O)O (stereo unspecified) | fold change | 0.789

Using the record for `CCCN(CCC)[C@@H]1CCc2ccc(O)cc2C1` , report its fold change. 0.992

So what does the record say about fold change for `c1ccc2c3c([nH]c2c1)CNCC3` ? 0.984

Numbers sourced from PubChem BioAssay.
